TESTED_TARGET: A2AR (hADORA2A-HEK293 cells) (Homo sapiens, UniProt P29274)
Sequence (P29274 whole entry): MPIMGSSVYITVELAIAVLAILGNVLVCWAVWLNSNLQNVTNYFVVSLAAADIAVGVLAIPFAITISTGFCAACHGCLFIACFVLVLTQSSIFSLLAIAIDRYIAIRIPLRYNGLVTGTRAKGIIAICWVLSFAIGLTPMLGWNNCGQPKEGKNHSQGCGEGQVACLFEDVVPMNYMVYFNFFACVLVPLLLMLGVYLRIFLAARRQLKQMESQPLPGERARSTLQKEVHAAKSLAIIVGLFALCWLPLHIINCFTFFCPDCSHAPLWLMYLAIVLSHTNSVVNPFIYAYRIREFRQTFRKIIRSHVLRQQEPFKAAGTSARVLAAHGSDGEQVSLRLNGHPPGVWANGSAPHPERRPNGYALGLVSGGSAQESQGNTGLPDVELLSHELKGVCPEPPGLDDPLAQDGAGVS
PROTOCOL_NOTES: functional cAMP production assay (NECA-stimulated cAMP production, TR-FRET)
CONDITIONS: inhibition of NECA (EC80)-stimulated cAMP production in A2AR-expressing HEK293 cells; read-out: A2AR Potency
# IC50 per record follows
The reply should be a number in nM, with the unit left off.

CC(C)N(C)C(=O)c1ccc(CCNc2nc(N)n3nc(-c4ccco4)nc3n2)cc1 | 19.3

IC50 for Nc1nc(NCCc2ccc(C(=O)N3CCc4ncccc4C3)cc2)nc2nc(-c3ccco3)nn12 is 27.4

In plain terms, Nc1nc(NCCc2ccc(C(=O)N3CCC(F)(F)CC3)cc2)nc2nc(-c3ccco3)nn12 has a documented IC50 of 24

Short answer for Nc1nc(NCCc2ccc(C(=O)N3CCCCC3)cc2)nc2nc(-c3ccco3)nn12 : IC50 was 6

The value of IC50 measured for the compound Nc1nc(NCCc2ccc(C(=O)NCCN3CCCC3)cc2)nc2nc(-c3ccco3)nn12 turned out to be 43.4

###

Reported IC50 values are given for each entry in this list.
TESTED_TARGET: A2AR (hADORA2A-HEK293 cells) (Homo sapiens, UniProt P29274)
PROTOCOL_NOTES: functional cAMP production assay (NECA-stimulated cAMP production, TR-FRET)
CONDITIONS: inhibition of NECA (EC80)-stimulated cAMP production in A2AR-expressing HEK293 cells; read-out: A2AR Potency
Kindly provide the numeric value in nM only, without the unit symbol.

CN1CCN(CCNC(=O)c2ccc(CCNc3nc(N)n4nc(-c5ccco5)nc4n3)cc2)CC1 | 33
Nc1nc(NCCc2ccc(C(=O)N3CCC(F)CC3)cc2)nc2nc(-c3ccco3)nn12 | 7.54
Nc1nc(NCCc2ccc(-c3nn[nH]n3)cc2)nc2nc(-c3ccco3)nn12 | 14.5

API: the following record is the query input.
// IC50 lookup, compound = Nc1nc(NCCc2ccc(C(=O)NCCN3CCOCC3)cc2)nc2nc(-c3ccco3)nn12 , result: 27.1

###

TESTED_TARGET: A2AR (hADORA2A-HEK293 cells) (Homo sapiens, UniProt P29274)
PROTOCOL_NOTES: functional cAMP production assay (NECA-stimulated cAMP production, TR-FRET)
CONDITIONS: inhibition of NECA (EC80)-stimulated cAMP production in A2AR-expressing HEK293 cells; read-out: A2AR Potency
READOUT: pIC50
Note on pIC50: it is the negative log10 of concentration, concentration in mol/L.

# example entries with known answers
Nc1nc(NCCc2ccc3cnccc3c2)nc2nc(-c3ccco3)nn12 | 8.04
CNC(=O)c1ccc(CCNc2nc(N)n3nc(-c4ccco4)nc3n2)cc1 | 7.86

The measured pIC50 that CC(C)(CO)NC(=O)c1ccc(CCNc2nc(N)n3nc(-c4ccco4)nc3n2)cc1 showed for A2AR (hADORA2A-HEK293 cells) (Homo sapiens, UniProt P29274) is 7.77

Field pIC50 (A2AR (hADORA2A-HEK293 cells) (Homo sapiens, UniProt P29274)), entry NC(=O)c1ccc(CCNc2nc(N)n3nc(-c4ccco4)nc3n2)cc1 : 7.88

Data origin, for the record: patent US11858942B2
